Target: hPPAR-γ (Homo sapiens)
Assay: GAL4-DBD hPPARγ/LBD luciferase reporter assay in HEK293T cells
Conditions: activation, overnight
measure: EC50 (µM)

CCCOc1c(/C=C/C(=O)c2ccc(SCC(=O)O)c(OC)c2)cccc1OCC : 1.29

I = COc1cc(/C=C2/S/C(=N/c3ccccc3)NC2=O)ccc1OCc1cccc(C(=O)O)c1
II = COc1ccc(C(=O)/C=C/c2c(C)nn(-c3ccccc3)c2Cl)cc1CSCC(=O)O
III = O=C(OCC(=O)c1ccc(O)cc1O)c1ccc(COc2ccc3ccccc3c2)o1
Exam item: Put the items in sequence by EC50, from largest down. // respond by listing labels in the order requested
Marked response: I, III, II
(I: 9.73 µM, III: 3.78 µM, II: 1.83 µM)

====

Target: hPPAR-α (Homo sapiens, UniProt Q07869)
Test: GAL4-DBD hPPARα/LBD luciferase reporter assay in HEK293T cells
Details: activation, overnight
measure: EC50 (µM)

Cc1cc(C(=O)COc2ccc(C(=O)O)cc2)c(C)n1CCC1=CCCCC1 : 4.63

I = O=C(NCc1ccc(COCC(F)(F)F)cc1)c1cc(-c2ccccc2)[nH]n1
II = CCOc1cc(/C=C/C(=O)O)ccc1OCc1ccc(C(C)(C)C)cc1
III = COc1ccc(C(=O)/C=C/c2c(C)nn(-c3ccccc3)c2Cl)cc1CSCC(=O)O
Exam item: In this exercise, place the 3 molecules in ascending sequence of their recorded EC50. // respond by listing labels in the order requested
Marked response: III, II, I
(III: 0.825 µM, II: 2.33 µM, I: 5.48 µM)

====

Target: hPPAR-γ (Homo sapiens, UniProt P37231)
Sequence (P37231 212-505): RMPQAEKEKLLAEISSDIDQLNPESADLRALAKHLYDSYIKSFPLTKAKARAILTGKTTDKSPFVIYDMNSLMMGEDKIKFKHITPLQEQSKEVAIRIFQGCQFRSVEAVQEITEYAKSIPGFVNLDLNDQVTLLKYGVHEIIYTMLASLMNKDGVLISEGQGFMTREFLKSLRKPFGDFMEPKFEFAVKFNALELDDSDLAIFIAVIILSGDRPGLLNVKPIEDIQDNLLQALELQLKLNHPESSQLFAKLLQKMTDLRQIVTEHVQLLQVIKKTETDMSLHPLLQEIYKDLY
Assay: GAL4-DBD hPPARγ/LBD luciferase reporter assay in HEK293T cells
Settings: activation, overnight
pEC50: −log10 of the molar value.
Catalogue of pEC50 readings, one per entry.

Consider the following illustrative entries.
O=C(NCc1ccc(COCC(F)(F)F)cc1)c1cc(-c2ccccc2)[nH]n1 : < 5.00
COc1cc(CNCc2cc(C)on2)ccc1OCC(=O)Nc1ccc(Br)cc1 : < 5.00
O=C(CN1CCN(c2ccc(O)cc2)CC1)NCC1(N2CCOCC2)CCCCC1 : < 5.00

Lab book: pEC50 of `Cc1ccc(-c2nc(SCCCC(=O)N3CCOCC3)[nH]c2-c2ccc(C)cc2)cc1` noted as < 5.00

Lab book: pEC50 of O=C(Nc1ccccc1O)C1CCN(C(=O)c2ccc(OCC3CCCO3)cc2)CC1 (stereo not drawn) noted as 6.03

Lab book: pEC50 of `Cc1ccc(C(=O)Nc2cccc(CNCc3ccc(OC(F)(F)F)cc3)c2)cc1` noted as 5.90

Lab book: pEC50 of O=[N+]([O-])c1cc(S(=O)(=O)N2CCCC2)ccc1OCC(O)CNCc1ccc(F)cc1 (stereo not drawn) noted as < 5.00

Lab book: pEC50 of `O=C(NCCCCOc1ccc(F)cc1)c1ccc([N+](=O)[O-])c(O)c1` noted as < 5.00

Lab book: pEC50 of `O=C(Nc1ccccc1O)C1CCN(C(=O)COc2ccc(F)cc2)CC1` noted as 5.14

====

Molecular target: hPPAR-γ (Homo sapiens, UniProt P37231)
Assay: GAL4-DBD hPPARγ/LBD luciferase reporter assay in HEK293T cells
Settings: activation, overnight
pEC50: −log10 of the molar value.
Catalogue of pEC50 readings, one per entry.

COc1ccc(CNCc2ccc(Oc3cccnc3)c(F)c2)cc1O [GNF-8065] : < 5.00
Cc1cccc(OCCNC(=O)COc2ccc(CC(=O)O)cc2)c1 [GNF-0242] : < 5.00
CCOc1cccc(/C=N/c2cccc(-c3csc(/N=C/c4cccc(OCC)c4O)n3)c2)c1O [GNF-6878] : < 5.00
CCOc1cc(/C=C/C(=O)O)ccc1OCc1ccc(C(C)(C)C)cc1 [GNF-4516] : < 5.00

Lab book: pEC50 of Cc1cc(C(=O)COC(=O)c2ccc(O)cc2O)c(C)n1Cc1ccc(F)cc1 [GNF-9969] noted as 6.00

====

Target: hPPAR-δ (Homo sapiens, UniProt Q03181)
Sequence (Q03181 147-441): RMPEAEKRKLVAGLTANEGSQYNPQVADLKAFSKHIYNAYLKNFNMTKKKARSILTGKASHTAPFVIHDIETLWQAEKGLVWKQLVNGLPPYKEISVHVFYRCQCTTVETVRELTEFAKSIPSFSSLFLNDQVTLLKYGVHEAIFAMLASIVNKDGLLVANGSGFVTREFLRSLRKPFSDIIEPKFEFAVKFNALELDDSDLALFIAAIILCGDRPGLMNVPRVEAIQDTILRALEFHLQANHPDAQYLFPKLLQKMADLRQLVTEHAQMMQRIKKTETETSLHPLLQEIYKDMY
Assay: GAL4-DBD hPPARδ/LBD luciferase reporter assay in HEK293T cells
Conditions: activation, HEK293T reporter, overnight
measure: EC50 (nM)

Consider the following illustrative entries.
Cc1cc(C(=O)COC(=O)c2ccc(O)cc2O)c(C)n1Cc1ccc(F)cc1 [GNF-9969] : 9480
O=C(Nc1cccc(CNCC(c2cccs2)N2CCOCC2)c1)c1ccc(Cl)cc1 (stereo not drawn) [GNF-6029] : 12
COc1cc(CNCc2cc(C)on2)ccc1OCC(=O)Nc1ccc(Br)cc1 [GNF-6952] : 19
O=C(Nc1ccccc1O)C1CCN(C(=O)COc2ccc(F)cc2)CC1 [GNF-5891] : 13
O=C(COc1ccc(C(=O)O)cc1)NC(c1ccccc1)c1ccc(Cl)cc1 (stereo not drawn) [GNF-0248] : 7550

1 = Cc1cc(C(=O)COc2ccc(C(=O)O)cc2)c(C)n1CCC1=CCCCC1 [GNF-9057]
2 = Cc1ccc(-c2nc(SCCCC(=O)N3CCOCC3)[nH]c2-c2ccc(C)cc2)cc1 [GNF-9820]
Exam item: Endpoint returns the identifier whose EC50 is numerically larger, either 1 or 2 . State your choice using its label.
Marked response: 1

P = O=C(Nc1ccccc1O)C1CCN(C(=O)c2ccc(OCC3CCCO3)cc2)CC1 (stereo not drawn) [GNF-9448]
Q = O=C(CN1CCN(c2ccc(O)cc2)CC1)NCC1(N2CCOCC2)CCCCC1 [GNF-8501]
R = COc1cc(/C=C2/S/C(=N/c3ccccc3)NC2=O)ccc1OCc1cccc(C(=O)O)c1 [GNF-5758]
S = Cc1ccc(C(=O)Nc2cccc(CNCc3ccc(OC(F)(F)F)cc3)c2)cc1 [GNF-0341]
T = COc1ccc(N2CCN(C(=O)CSc3nnc(COc4ccc(Cl)cc4C)[nH]3)CC2)cc1 [GNF-7486]
Exam item: Put the items in sequence by EC50, from largest down. // respond by listing labels in the order requested
Marked response: R, P, T, S, Q
(R: 4330 nM, P: 883 nM, T: 18 nM, S: 11 nM, Q: 6 nM)

A = CCOc1cc(/C=C/C(=O)O)ccc1OCc1ccc(C(C)(C)C)cc1 [GNF-4516]
B = O=[N+]([O-])c1cc(S(=O)(=O)N2CCCC2)ccc1OCC(O)CNCc1ccc(F)cc1 (stereo not drawn) [GNF-9594]
C = O=C(NCc1ccc(COCC(F)(F)F)cc1)c1cc(-c2ccccc2)[nH]n1 [GNF-3632]
Exam item: Put the items in sequence by EC50, from largest down. // respond by listing labels in the order requested
Marked response: A, B, C

====

Target: hPPAR-α (Homo sapiens, UniProt Q07869)
Sequence (Q07869 175-468): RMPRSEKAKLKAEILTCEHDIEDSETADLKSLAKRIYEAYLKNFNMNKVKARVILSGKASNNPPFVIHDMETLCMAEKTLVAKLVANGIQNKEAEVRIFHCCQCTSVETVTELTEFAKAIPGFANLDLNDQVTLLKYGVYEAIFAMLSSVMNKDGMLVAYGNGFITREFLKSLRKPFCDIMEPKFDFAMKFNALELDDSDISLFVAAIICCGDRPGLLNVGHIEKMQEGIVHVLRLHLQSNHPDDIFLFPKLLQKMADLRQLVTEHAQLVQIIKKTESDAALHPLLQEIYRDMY
Experiment: GAL4-DBD hPPARα/LBD luciferase reporter assay in HEK293T cells
Conditions: activation, overnight
pEC50: −log10 of the molar value.
measure: pEC50

O=C(COc1ccc(C(=O)O)cc1)NC(c1ccccc1)c1ccc(Cl)cc1 (centres unmarked) [GNF-0248] : 5.15
COc1cc(CNCc2cc(C)on2)ccc1OCC(=O)Nc1ccc(Br)cc1 [GNF-6952] : 5.12
CCCOc1c(/C=C/C(=O)c2ccc(SCC(=O)O)c(OC)c2)cccc1OCC [GNF-1676] : 5.21
COc1cc(/C=C2/S/C(=N/c3ccccc3)NC2=O)ccc1OCc1cccc(C(=O)O)c1 [GNF-5758] : 5.16
O=C(Nc1ccccc1O)C1CCN(C(=O)c2ccc(OCC3CCCO3)cc2)CC1 (centres unmarked) [GNF-9448] : 5.15
O=C(OCC(=O)c1ccc(O)cc1O)c1ccc(COc2ccc3ccccc3c2)o1 [GNF-6928] : 5.16
Cc1cc(C(=O)COC(=O)c2ccc(O)cc2O)c(C)n1Cc1ccc(F)cc1 [GNF-9969] : 5.16
O=C(O)Cc1csc(SCc2cc(F)cc3c2OC(c2ccccc2)OC3)n1 (centres unmarked) [GNF-1051] : 5.13

====

Target: hPPAR-γ (Homo sapiens, UniProt P37231)
Assay: GAL4-DBD hPPARγ/LBD luciferase reporter assay in HEK293T cells
Details: activation, overnight
pEC50: −log10 of the molar value.
Catalogue of pEC50 readings, one per entry.

Consider the following illustrative entries.
CC(C(=O)Nc1ccc(SC(F)F)cc1)N1CC=C(c2ccc(O)cc2)CC1 (centres unmarked) : < 5.00
Cc1cc(C(=O)COc2ccc(C(=O)O)cc2)c(C)n1CCC1=CCCCC1 : 5.07
O=C(COc1ccc(C(=O)O)cc1)NC(c1ccccc1)c1ccc(Cl)cc1 (centres unmarked) : < 5.00
O=C(O)Cc1csc(SCc2cc(F)cc3c2OC(c2ccccc2)OC3)n1 (centres unmarked) : < 5.00

# context switch: different compound, same pEC50
Lab book: pEC50 of `COc1ccc(N2CCN(C(=O)CSc3nnc(COc4ccc(Cl)cc4C)[nH]3)CC2)cc1` noted as < 5.00
